test system: HT-1197 cells; assay: Cell-based assay: anti-proliferative activity, Cell Counting Kit-8, 72 hours (HT-1197, negative control without MELK expression); details: Homo sapiens, HT1197, 72 h, HT1197 cells (negative control), 72 hours
Where a name gives a salt, the structure may show the parent alone.
Rule: IC50 below 9 µM gives 1 (yes), anything at or above gives 0 (no).

{"MOLECULE": "CC(C)(N)c1ccc(Nc2c(C(=O)C3CC3)cnc3ccc(-c4cc(Cl)c(O)c(Cl)c4)cc23)cc1 [Example 601, hydrochloride]", "CATEGORY LABEL": "1 (yes)"}
{"MOLECULE": "COc1cc(-c2ccc3ncc(C(=O)C4CCCC4)c(N[C@H]4CC[C@H](CN(C)C)CC4)c3c2)cc(Cl)c1O [Example 916, hydrochloride]", "CATEGORY LABEL": "1 (yes)"}
{"MOLECULE": "CN(C)Cc1cccc(Nc2c(C(=O)C3CC3)cnc3ccc(-c4cc(F)c(O)c(Cl)c4)cc23)c1", "CATEGORY LABEL": "1 (yes)"}
{"MOLECULE": "COC1CCN(C[C@H]2CC[C@H](Nc3c(C(=O)C4CC4)cnc4ccc(-c5cc(Cl)c(O)c(Cl)c5)cc34)CC2)C1 (stereo partly drawn)", "CATEGORY LABEL": "1 (yes)"}
{"MOLECULE": "CCCC(=O)c1cnc2ccc(-c3cc(F)c(O)c(Cl)c3)cc2c1Nc1ccc(N2CCNCC2)nc1", "CATEGORY LABEL": "1 (yes)"}
{"MOLECULE": "CN1CCC(n2cc(Nc3c(S(C)(=O)=O)cnc4ccc(-c5cc(F)c(O)c(Cl)c5)cc34)cn2)CC1 [Example 900, hydrochloride]", "CATEGORY LABEL": "0 (no)"}
{"MOLECULE": "CC(=O)c1cnc2ccc(-c3ccc4[nH]ncc4c3)cc2c1N[C@H]1CC[C@H](CN(C)C)CC1 [Example 910, hydrochloride]", "CATEGORY LABEL": "0 (no)"}
{"MOLECULE": "CCC(=O)c1cnc2ccc(-c3cc(Cl)c(O)c(Cl)c3)cc2c1Nc1ccc(N2CCC(N(C)C)C2)nc1 (stereo not drawn)", "CATEGORY LABEL": "0 (no)"}
{"MOLECULE": "CN(C)C[C@H]1CC[C@H](Nc2c(C(=O)C(C)(C)C)cnc3ccc(-c4cc(Cl)c(O)c(Cl)c4)cc23)CC1 [Example 918, hydrochloride]", "CATEGORY LABEL": "0 (no)"}
{"MOLECULE": "COc1cc(-c2ccc3ncc(C(=O)C4CC4)c(N[C@H]4CC[C@H](CN5CCCC5)CC4)c3c2)cc(Cl)c1O", "CATEGORY LABEL": "1 (yes)"}
{"MOLECULE": "COc1cc(-c2ccc3ncc(C(=O)C4CC4)c(-c4cn[nH]c4)c3c2)cc(Cl)c1O", "CATEGORY LABEL": "0 (no)"}
{"MOLECULE": "CN(C)C[C@H]1CC[C@@H](Nc2c(C(=O)C3CC3)cnc3ccc(-c4cc(F)c(O)c(Cl)c4)cc23)CC1", "CATEGORY LABEL": "1 (yes)"}
{"MOLECULE": "C=CCN(CC=C)C1(C)CCC(Nc2c(C(=O)C3CC3)cnc3ccc(-c4cc(Cl)c(O)c(Cl)c4)cc23)CC1 (stereo not drawn)", "CATEGORY LABEL": "0 (no)"}
{"MOLECULE": "Nc1ccc(Nc2c(C(=O)C3CC3)cnc3ccc(-c4cc(Cl)c(O)c(Cl)c4)cc23)cn1", "CATEGORY LABEL": "1 (yes)"}
{"MOLECULE": "O=C(c1cnc2ccc(-c3cc(F)c(O)c(Cl)c3)cc2c1Nc1cnn(C2CCNCC2)c1)C1CC1", "CATEGORY LABEL": "0 (no)"}
{"MOLECULE": "O=C(c1cnc2ccc(-c3cc(F)c(O)c(Cl)c3)cc2c1Nc1ccc(NC2CCCNC2)nc1)C1CC1 (stereo not drawn)", "CATEGORY LABEL": "0 (no)"}
{"MOLECULE": "O=C(c1cnc2ccc(-c3cc(F)c(O)c(Cl)c3)cc2c1Nc1ccc(N2CCNCC2)cn1)C1CC1", "CATEGORY LABEL": "0 (no)"}
{"MOLECULE": "COc1cc(-c2ccc3ncc(C(=O)C4CC4)c(NC4C[C@H]5CC[C@@H](C4)N5)c3c2)cc(Cl)c1O (stereo partly drawn)", "CATEGORY LABEL": "1 (yes)"}
{"MOLECULE": "NC1CCN(c2ncc(Nc3c(C(=O)C4CC4)cnc4ccc(-c5cc(Cl)c(O)c(Cl)c5)cc34)cn2)CC1", "CATEGORY LABEL": "1 (yes)"}
{"MOLECULE": "O=C(c1cnc2ccc(-c3cc(Cl)c(O)c(Cl)c3)cc2c1Nc1cccc(CCN2CCCC2)c1)C1CCCC1 [Example 927, hydrochloride]", "CATEGORY LABEL": "0 (no)"}
{"MOLECULE": "NC1CCCN(c2ncc(Nc3c(C(=O)C4CC4)cnc4ccc(-c5cc(F)c(O)c(Cl)c5)cc34)cn2)C1 (stereo not drawn)", "CATEGORY LABEL": "1 (yes)"}
{"MOLECULE": "CN(C)CCOc1ccc(Nc2c(S(C)(=O)=O)cnc3ccc(-c4cc(F)c(O)c(Cl)c4)cc23)cn1 [Example 885, hydrochloride]", "CATEGORY LABEL": "0 (no)"}
{"MOLECULE": "COC1CCN(C[C@H]2CC[C@H](Nc3c(C(=O)C4CC4)cnc4ccc(-c5cc(F)c(O)c(Cl)c5)cc34)CC2)C1 (stereo partly drawn)", "CATEGORY LABEL": "1 (yes)"}
{"MOLECULE": "COc1cc(-c2ccc3ncc(C(=O)C4CC4)c(Nc4ccc(NC5CCCNC5)nc4)c3c2)cc(Cl)c1O (stereo not drawn)", "CATEGORY LABEL": "1 (yes)"}
{"MOLECULE": "COc1cc(-c2ccc3ncc(C(=O)C4CC4)c(N[C@H]4CC[C@@H](CN(C)C)CC4)c3c2)cc(Cl)c1O", "CATEGORY LABEL": "1 (yes)"}
{"MOLECULE": "CN[C@H]1CC[C@H](Nc2c(C(=O)C3CC3)cnc3ccc(-c4cc(Cl)c(O)c(OC)c4)cc23)CC1", "CATEGORY LABEL": "1 (yes)"}

---

tested on: T47D cells; assay: Cell-based assay: anti-proliferative activity, Cell Counting Kit-8, 72 hours (T47D); conditions: Homo sapiens, T47D, 72 h
Where a name gives a salt, the structure may show the parent alone.

{"COMPOUND": "COc1cc(-c2ccc3ncc(C(=O)C4CC4)c(-c4ccc(CN5CCCC5)cc4)c3c2)cc(Cl)c1O", "IC50, µM": 0.63}
{"COMPOUND": "COc1cc(-c2ccc3ncc(C(=O)C4CCCC4)c(Nc4cccc(CCN5CCCC5)c4)c3c2)cc(Cl)c1O [Example 924, hydrochloride]", "IC50, µM": 3.2}
{"COMPOUND": "NC1CCN(c2ncc(Nc3c(C(=O)C4CC4)cnc4ccc(-c5cc(Cl)c(O)c(Cl)c5)cc34)cn2)C1 (centres unmarked)", "IC50, µM": 0.031}
{"COMPOUND": "CNC1CCN(c2ccc(Nc3c(C(C)=O)cnc4ccc(-c5cc(F)c(O)c(Cl)c5)cc34)cn2)C1 (centres unmarked) [Example 785, trihydrochloride]", "IC50, µM": 0.035}
{"COMPOUND": "COc1cc(-c2ccc3ncc(C(C)=O)c(N[C@H]4CC[C@H](CN5CCN(C)CC5)CC4)c3c2)cc(Cl)c1O [Example 787, hydrochloride]", "IC50, µM": 0.48}
{"COMPOUND": "NC1CCN(c2ncc(Nc3c(C(=O)C4CC4)cnc4ccc(-c5cc(Cl)c(O)c(Cl)c5)cc34)cn2)CC1", "IC50, µM": 0.11}
{"COMPOUND": "CC(=O)c1cnc2ccc(-c3cc(Cl)c(O)c(Cl)c3)cc2c1Nc1cncc(CCN2CCCC2)c1 [Example 873, hydrochloride]", "IC50, µM": 100}
{"COMPOUND": "COc1cc(-c2ccc3ncc(C(=O)C4CC4)c(Nc4ccc(C(N)=O)cc4)c3c2)cc(Cl)c1O", "IC50, µM": 1.1}
{"COMPOUND": "COc1cc(-c2ccc3ncc(C(C)=O)c(Nc4ccc(N5CCCC(N)C5)nc4)c3c2)cc(Cl)c1O (centres unmarked)", "IC50, µM": 0.056}
{"COMPOUND": "O=C(c1cnc2ccc(-c3cc(F)c(O)c(Cl)c3)cc2c1Nc1ccc(NCCO)nc1)C1CC1", "IC50, µM": 0.23}
{"COMPOUND": "CC(=O)c1cnc2ccc(-c3ccc4nc[nH]c4c3)cc2c1Nc1ccc(OCCN(C)C)nc1 [Example 902, hydrochloride]", "IC50, µM": 3.3}
{"COMPOUND": "CC(=O)c1cnc2ccc(-c3cc(Cl)c(O)c(Cl)c3)cc2c1Nc1cnc(C)c(CCN2CCCC2)c1", "IC50, µM": 1.8}
{"COMPOUND": "O=C(c1cnc2ccc(-c3cc(Cl)c(O)c(Cl)c3)cc2c1N[C@H]1CC[C@H](CNCCF)CC1)C1CC1", "IC50, µM": 0.47}
{"COMPOUND": "CN1CCN(Cc2ccc(Nc3c(C(=O)C4CC4)cnc4ccc(-c5ccc(O)c(Cl)c5)cc34)cc2)CC1", "IC50, µM": 1.3}
